Assay: in vitro
Conditions: mouse (B16-F10); human (HepG2, K562, HL-60)
measured.parameter: IC50 at 72 h

Problem: Give the measured IC50 at 72 h of COc1cc2c(cc1OC)-c1c(OC)c(O)cc3c1C(C2)NCC3 (single isomer, unassigned; (+)) [(+)-Norpredicentrine, (+)-norpredicentrine] .
Result: > 25 µg/mL

###

System: tumor cell lines B16-F10, HepG2, K562 and HL-60
Assay: Alamar Blue cytotoxicity assay, summary over the tumor cell lines tested
Conditions: 72 h, read-out: IC50 in at least one of the tumor cell lines tested
measured.parameter: IC50

# count of solved cases: 3
Problem: Give the measured IC50 of COc1ccc2c(c1)C[C@@H]1NCCc3cc4c(c-2c31)OCO4 [(+)-Xylopine, (+)-xylopine] .
Result: < 4 µg/mL

Problem: Give the measured IC50 of COc1cc2c(cc1OC)-c1c(OC)c(OC)cc3ccnc(c13)C2=O .
Result: < 20 µg/mL

Problem: Give the measured IC50 of COc1cc(O)c2c(c1)C[C@@H]1NCCc3cc4c(c-2c31)OCO4 [(+)-Calycinine, (+)-calycinine] .
Result: < 20 µg/mL

Quick request: IC50 for each listed item, please.
1. COc1cc2c(cc1OC)-c1c(OC)c(OC)cc3c1C(C2)NCC3 (single isomer, unassigned; (+)) [(+)-Norglaucine, (+)-norglaucine]
2. COc1cc2c(cc1OC)-c1c(OC)c(OC)c(OC)c3c1C(C2)NCC3 (single isomer, unassigned; (+)) [(+)-Norpurpureine, (+)-norpurpureine]
3. COc1ccc2c(c1)C(=O)c1nccc3cc4c(c-2c13)OCO4
4. COc1cc2c(cc1O)CCN1Cc3c(ccc(O)c3OC)CC21 (single isomer, unassigned; (+)) [(+)-Discretamine, (+)-discretamine]

Result:
1. < 4 µg/mL
2. < 20 µg/mL
3. < 4 µg/mL
4. < 20 µg/mL
